System: RhoE promoter
Test Protocol: RhoE promoter luc2 luciferase reporter screen for inducers of RhoE expression
Assay type: cell-based
Settings: Table 1; luminescence at 24 hours, two replicates per compound
Measure Name: Composite Z value (induction of RhoE expression)

>>> recorded_value("COc1ccc(-c2coc3cc(OC)ccc3c2=O)cc1 [7,4′-dimethoxyisoflavone]")
3.0721
>>> recorded_value("O=C(/C=C/c1ccccc1)c1ccc(O)cc1 [4′-hydroxychalcone]")
2.8467
>>> recorded_value("C=C1C(=O)O[C@@H]2C[C@@]3(C)CCC[C@H](C)C3=C[C@H]12 [Helenine]")
2.473

The following molecules each have a reported value; give each one's Composite Z value (induction of RhoE expression).
1. COc1cc(O)c2c(=O)c(O)c(-c3ccc(O)c(O)c3)oc2c1 [Rhamnetin]
2. COc1ccccc1-c1cc(=O)c2c(OC)cccc2o1 [5,2′-dimethoxyflavone]

Reply:
2.1577
3.0257

====

Tested on: RhoE promoter
Test Protocol: RhoE promoter luc2 luciferase reporter screen for inducers of RhoE expression
Assay type: cell-based
Settings: Table 1; luminescence at 24 hours, two replicates per compound
Measure Name: Composite Z value (induction of RhoE expression)
One number for each entry.

>>> recorded_value("C=CC(C1=CC(=O)C(OC)=CC1=O)c1ccc(O)cc1 (centres unmarked) [dalbergione, 4-methoxy-4′-hydroxy-]")
2.3862
>>> recorded_value("COc1ccc(-c2coc3cc(O)cc(O)c3c2=O)cc1 [biochanin a]")
3.2901
>>> recorded_value("O=c1c2ccccc2oc2ccccc12 [Xanthone]")
3.79
>>> recorded_value("COc1ccc2c(=O)c(-c3cc4c(cc3OC)OCO4)coc2c1 [cuneatin methyl ether]")
2.23

Next, consider the following compound.
Ask: Find the recorded Composite Z value (induction of RhoE expression) belonging to O=C1c2ccccc2-c2cccc3cccc1c23 [Benzanthrone] and report it.
Reply: 2.735
